List of MFI values.
- TARGET_ENTITY: human CD28 (human, UniProt P10747)
- ASSAY_OVERVIEW: flow cytometry, Jurkat cells (endogenous CD28), 100 nM, anti-Flag

* PD-L2 1417-CD80 2616 (other) LFTVTVPKELYIIEQGSNVTLECNFDTGSHVNLGAITASLQKVENDASPHRERATLLEEQLPLGRALFHIPQVQVRDEGQYRCIIIYGDAWDYKYLTLKVKAGSGGSGGGGSGGGGSVIHVTKEVKEVATLSCGHNVSLEELAQTRIYWQKGKKMVLTMMSGDMNIWPEYKNRTIFDITNNLSIVILDPRPSDEGTYECVVLKYEKDAFKREHLAEVDYKDDDDKHHHHHH | 89.2
* CD80 2617-PD-L2 1417 (other) VIHVTKEVKEVATLSCGHNVSVEELAQTRIYWQKGKKMVLTMMSGDMNIWPEYENRTIFDITNNLSIVILDPRPSDEGTYECVVLKYEKDAFKREHLAEVGSGGSGGGGSGGGGSLFTVTVPKELYIIEQGSNVTLECNFDTGSHVNLGAITASLQKVENDASPHRERATLLEEQLPLGRALFHIPQVQVRDEGQYRCIIIYGDAWDYKYLTLKVKADYKDDDDKHHHHHH | 110
* PD-L2 1417-CD80 2617 (other) LFTVTVPKELYIIEQGSNVTLECNFDTGSHVNLGAITASLQKVENDASPHRERATLLEEQLPLGRALFHIPQVQVRDEGQYRCIIIYGDAWDYKYLTLKVKAGSGGSGGGGSGGGGSVIHVTKEVKEVATLSCGHNVSVEELAQTRIYWQKGKKMVLTMMSGDMNIWPEYENRTIFDITNNLSIVILDPRPSDEGTYECVVLKYEKDAFKREHLAEVDYKDDDDKHHHHHH | 94.2

Shifting focus to the binder that follows.
-- ask Provide only the value of recorded MFI for CD80 2616-PD-L2 1417 (other) VIHVTKEVKEVATLSCGHNVSLEELAQTRIYWQKGKKMVLTMMSGDMNIWPEYKNRTIFDITNNLSIVILDPRPSDEGTYECVVLKYEKDAFKREHLAEVGSGGSGGGGSGGGGSLFTVTVPKELYIIEQGSNVTLECNFDTGSHVNLGAITASLQKVENDASPHRERATLLEEQLPLGRALFHIPQVQVRDEGQYRCIIIYGDAWDYKYLTLKVKADYKDDDDKHHHHHH
-- reply 92.2
